Target Of Assay: T1, Nrd1 307-491 Y382A (Saccharomyces cerevisiae, UniProt P53617 307-491, Y382A)
T1 sequence: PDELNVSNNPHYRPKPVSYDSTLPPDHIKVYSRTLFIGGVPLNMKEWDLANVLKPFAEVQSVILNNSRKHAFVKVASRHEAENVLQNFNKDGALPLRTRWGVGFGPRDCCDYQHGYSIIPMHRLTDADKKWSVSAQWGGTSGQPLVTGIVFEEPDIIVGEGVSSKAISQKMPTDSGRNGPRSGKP
Protocol Details: fluorescence anisotropy; FA: 10 nM RNA, 50 mM sodium phosphate pH 8, 150 mM NaCl, 10 mM beta-mercaptoethanol, 20 C (protein stock in 300 mM NaCl); NMR: same buffer with 300 mM NaCl, 20
Experimental Conditions: protein: recombinant; tags: C-terminal His6; label: 5' fluorescein or TAMRA (FA); unlabeled (NMR)
Observable: pKd
Bear in mind: pKd is minus log10 of a mol/L concentration; give just that figure.

Which pKd is listed for GUAA (ssRNA) ?
4.49

Values compiled from paper PMC4081072.
